FYI, the data here is from patent US20120083522A1.

Assay: Tolerability in CD1 mice: liver function (Example 21)
Assay type: in vivo
Details: plasma, 50 mg/kg s.c. twice per week for 6 weeks
For each entry below, report its Cholesterol value.
Numbers only, in mg/dL.

Task: Could you tell me which Cholesterol is on file for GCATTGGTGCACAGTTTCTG (antisense; all C 5-methyl, all phosphorothioate, sugars by position not given here; MOE gapmer, 5-10-5) [ISIS 412224, 5-10-5 MOE gapmer] ?
Result: 114

Task: Could you tell me which Cholesterol is on file for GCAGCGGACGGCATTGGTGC (antisense; all C 5-methyl, all phosphorothioate, sugars by position not given here; MOE gapmer, 5-10-5) [ISIS 412225, 5-10-5 MOE gapmer] ?
Result: 128

Task: Could you tell me which Cholesterol is on file for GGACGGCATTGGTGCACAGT (antisense; all C 5-methyl, all phosphorothioate, sugars by position not given here; MOE gapmer, 5-10-5) [ISIS 413482, 5-10-5 MOE gapmer] ?
Result: 138

Task: Could you tell me which Cholesterol is on file for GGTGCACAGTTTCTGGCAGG (all C 5-methyl, all phosphorothioate, sugars by position not given here; MOE gapmer) [ISIS 413481, 5-10-5 MOE gapmer] ?
Result: 153

Lab note: next sequence to report on.
Task: Could you tell me which Cholesterol is on file for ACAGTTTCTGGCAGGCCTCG (antisense; all C 5-methyl, all phosphorothioate, sugars by position not given here; MOE gapmer, 5-10-5) [ISIS 412223, 5-10-5 MOE gapmer] ?
Result: 117
